Assay: Measurement of 19F spin-lattice relaxation time (T1) by inversion recovery, 500 MHz NMR
Assay type: physicochemical
Conditions: 50 mM in CDCl3, 36° C.
Method: (Measurement of ^19F Spin-Lattice Relaxation Time (T1)) A compound was dissolved in a deuterated chloroform solution at a concentration of 50 mM, and the longitudinal relaxation time (T1) of ^19F nucleus was measured through an inversion recovery method using a 500 MHz NMR device under the conditions shown below. […]

COMPOUND | UNITS | T1 (19F spin-lattice relaxation time)
CC1(C)CC(OCCCCOC(C(F)(F)F)(C(F)(F)F)C(F)(F)F)CC(C)(C)N1[O] | s | 0.134
CC1(C)CC(OCC(F)(F)F)CC(C)(C)N1[O] | s | 0.101
CC1(C)CC(OCCCCCCCCOC(C(F)(F)F)(C(F)(F)F)C(F)(F)F)CC(C)(C)N1[O] | s | 0.130
CC1(C)CC(OCCCCOC(C(F)(F)F)C(F)(F)F)CC(C)(C)N1[O] | s | 0.130
CC1(C)CC(OCCCC(F)(F)F)CC(C)(C)N1[O] | s | 0.117
CC1(C)CC(OC(C(F)(F)F)C(F)(F)F)CC(C)(C)N1[O] | s | 0.096
CC1(C)CC(OCCCCCCCCCCCCOC(C(F)(F)F)(C(F)(F)F)C(F)(F)F)CC(C)(C)N1[O] | s | 0.214
CCC1(CC)CC(OCCCCOC(C(F)(F)F)(C(F)(F)F)C(F)(F)F)CC(C)(C)N1[O] (stereo not shown) | s | 0.127
CC1(C)CC(OCCOC(C(F)(F)F)(C(F)(F)F)C(F)(F)F)CC(C)(C)N1[O] | s | 0.121
CC1(C)CC(Oc2cc(C(F)(F)F)cc(C(F)(F)F)c2)CC(C)(C)N1[O] | s | 0.108
CC1(C)CC(Oc2ccc(C(F)(F)F)cc2)CC(C)(C)N1[O] | s | 0.123
CCC1(CC)CC(OCCCCOC(C(F)(F)F)(C(F)(F)F)C(F)(F)F)CC(CC)(CC)N1[O] | s | 0.130
CC1(C)CC(OC(C(F)(F)F)(C(F)(F)F)C(F)(F)F)CC(C)(C)N1[O] [Compound 15] | s | 0.094
CC1(C)CC(OCCCCCCCCCCCCCCCCOC(C(F)(F)F)(C(F)(F)F)C(F)(F)F)CC(C)(C)N1[O] | s | 0.284
CC1(C)CC(Oc2cccc(C(F)(F)F)c2)CC(C)(C)N1[O] | s | 0.110
CCC1(CC)CC(OCCOC(C(F)(F)F)(C(F)(F)F)C(F)(F)F)CC(CC)(CC)N1[O] | s | 0.118
CC1(C)CC(OCCC(F)(F)F)CC(C)(C)N1[O] | s | 0.105
CC1(C)CC(Oc2ccccc2C(F)(F)F)CC(C)(C)N1[O] | s | 0.098
CC1(C)CC(OC(C(F)(F)F)(C(F)(F)F)C(F)(F)F)CC(C)(C)N1[O] [Compound 24] | s | 0.092

The reported numbers originate from patent US20240173439A1.
